The reader will find reported melting point values listed item by item below.
Where a name gives a salt, the structure may show the parent alone.

                                   compound           reported
0  Cc1nc(C(C#N)c2ccccn2)c2sccc2n1 (stereo not drawn)      266 to 269 °C
1  COC(=O)[C@@H]1CCCN1c1nc(C(=O)c2cccs2)c2sccc2n1  155.9 to 156.3 °C
2  Cc1ccsc1C(=O)c1nc(N2CCC[C@@H]2CO)nc2ccsc12    96.2 to 96.9 °C

Task item: Look up melting point: `COC(=O)c1nc(C(=O)c2cccs2)c2sccc2n1`
Reply: 232.8 to 233 °C

Task item: Look up melting point: `CSc1nc(C(=O)c2cccs2)c2sccc2n1`
Reply: 189.7 to 190.6 °C

Task item: Look up melting point: `COc1ccc(C(=O)c2nc(C(F)(F)F)nc3ccsc23)s1`
Reply: 160 to 162 °C

Task item: Look up melting point: `CC(=O)NNc1nc(C(=O)c2cccs2)c2sccc2n1`
Reply: 258.3 to 259 °C

Task item: Look up melting point: NCCNc1nc(C(=O)c2cccs2)c2sccc2n1 (as salt: hydrochloride) [Example 55, dihydrochloride]
Reply: > 190 °C (dec.)

Task item: Look up melting point: `O=C(c1ccc(Cl)s1)c1nc(C(F)(F)F)nc2ccsc12`
Reply: 165 to 167 °C
